- Test system: TO-N3-2 (biotin conjugate)
- method-summary: pull-down binding Z-score (relative to library population); higher = stronger binding
- test-context: RNA library: Library-2
Class yes (1): pull-down binding Z-score at least -0.2. Class no (0): pull-down binding Z-score below -0.2.

Answered examples (2):
>>> category_label("CCACAUAGGAGGGACAGCGGCCUUUCCAACAGG [hsa-mir-9500]")
"yes (1)"
>>> category_label("GGAGACACUUUCACUAUAUAUAGUGGCUCC [hsa-mir-3156-2]")
"no (0)"

Task item: Quick check: does CUGCACUGUUAGCGGGUACAAUCACUUCUGGUUGGACCUUUGGUGCAG [SHAPE_invitro_SARS-CoV-2_Motif_437] have pull-down binding Z-score greater than or equal to -0.2?
Reply: no (0)

Task item: Cool, now UUGCCCAA [hsa-mir-548bb]
Reply: no (0)

###

- Test system: TO-3-N3-2 (biotin conjugate)
- method-summary: pull-down binding Z-score (relative to library population); higher = stronger binding
- test-context: RNA library: Library-2
readout: pull-down binding Z-score

See these solved cases before continuing.
>>> reported_value("AUUUGCCAUCACCUUUACCUUUAAUGGCAAAA [hsa-mir-548av]")
-0.205
>>> reported_value("GCUUAUUGAUGUAGCCAACAAGC [hsa-mir-3148]")
-0.225

Task item: Recorded pull-down binding Z-score for GGGAACUGGUGAGUUGUACAUAGAAAUGCUUUCUAACUCC [hsa-mir-4499] , please?
Reply: -0.00162

Task item: Cool, now GGAGCUGGCUGCUGGCCUCAGUUCU [hsa-mir-5001]
Reply: -0.449

Task item: Cool, now CCCCACUACAAUUGGGG [IAV_invivo_HA_4_Motif_4+IAV_invivo_HA_4_Motif_4]
Reply: -0.517

Task item: Cool, now GAGUAUUUUAAUACUGGCAUACUC [hsa-mir-1263]
Reply: 0.095

Task item: Cool, now UGCUGUUGGAGACUCGAUUGUUGGUGACAGCGAAAGAACGAUAACAAA [hsa-mir-3655]
Reply: -0.149

Task item: Cool, now AUAAGAAAGACAAUUCUUAU [DMSMaPseq_invitro_SARS-CoV-2_Motif_114]
Reply: -0.3

Task item: Cool, now UUGUUACAUUUUAGGAUUGCUUGCCCCUUGCUCCAAUGGUGCAGGCAGAAGAAAUGCAAACAA [hsa-mir-3973]
Reply: -0.0806

###

- Tested on: TO-N3 (biotin conjugate)
- method-summary: pull-down binding Z-score (relative to library population); higher = stronger binding
- test-context: RNA library: Library-2
Reported values of pull-down binding Z-score for individual entries
// return a plain number; no unit text

>>> reported_value("GACAUCCCUCAUCUGUUUCUCACUGGUGUC [hsa-mir-6830]")
-0.0985
>>> reported_value("GCGCCGCCAGAAACUGGCCGCGC [mismatch-CC]")
-1.08
>>> reported_value("GAGUCAGAAAAACUAC [hsa-mir-601]")
0.484
>>> reported_value("CAUGGAUUUGUCUUCUACAAUUUGCCUAUG")
-0.967

Task item: Recorded pull-down binding Z-score for AGUUCAAGAACUUUACUCUCCAAUUUUUCUUAUUGUUGCGGCAAUAGUGUUUAUAACACUUUGCUUCACACUCAAAAGAAAGACAGAAUGAUUGAACU , please?
Reply: -1.27
